Test system: RIOK3;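 further: KINOMEscan kinase panel screen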
test context: concentration: 1 μM, replicates: in singlicate; n = 1

# compound, assayed target, %Inh
rows = [
    ("Cn1cc(-c2ccc3c(c2)CCN3C(=O)Cc2cccc(C(F)(F)F)c2)c2c(N)ncnc21", "RIOK3", "0%"),
    ("O=C(Nc1ccccc1F)NC1CCN(c2ccnc(Nc3ccc(F)cc3)n2)C1 (centres unmarked)", "RIOK3", "15%"),
    ("O=C(Nc1ccccc1)Nc1ccc(Oc2ccc3nccn3n2)cc1", "RIOK3", "0%"),
    ("Cc1ccc(O)cc1Nc1cc(C(F)(F)F)nc2ccc(-c3ccncc3)cc12", "RIOK3", "13%"),
    ("Nc1n[nH]c2nnc(-c3ccccc3)cc12", "RIOK3", "0%"),
    ("CC(C)(C)c1ccc(-n2cnc3c(N)ncnc32)cc1", "RIOK3", "23%"),
    ("CCC(CC)(CC)n1cnc2c(N)ncnc21", "RIOK3", "0%"),
    ("Cl.O=S(=O)(c1cccc(F)c1)c1ccc(Nc2ncnc3cc(Br)sc23)cc1Cl", "RIOK3", "22%"),
    ("Clc1ccc(-c2cc(-c3c[nH]nc3-c3ccccn3)ccn2)cc1", "RIOK3", "0%"),
    ("Cn1ccc2ncnc(Oc3ccc(NC(=O)Nc4cccnc4)c(Cl)c3)c21", "RIOK3", "4%"),
    ("Cl.Cn1ccc(-c2cccc(Nc3ccnc4cc(-c5nccs5)ccc34)c2)n1", "RIOK3", "0%"),
]
